Hello, the source for this data is paper PMC4089491, in case you need it.

measurementTarget: T1, BurrH (Burkholderia rhizoxinica, UniProt E5AV36 1-771)
T1 sequence: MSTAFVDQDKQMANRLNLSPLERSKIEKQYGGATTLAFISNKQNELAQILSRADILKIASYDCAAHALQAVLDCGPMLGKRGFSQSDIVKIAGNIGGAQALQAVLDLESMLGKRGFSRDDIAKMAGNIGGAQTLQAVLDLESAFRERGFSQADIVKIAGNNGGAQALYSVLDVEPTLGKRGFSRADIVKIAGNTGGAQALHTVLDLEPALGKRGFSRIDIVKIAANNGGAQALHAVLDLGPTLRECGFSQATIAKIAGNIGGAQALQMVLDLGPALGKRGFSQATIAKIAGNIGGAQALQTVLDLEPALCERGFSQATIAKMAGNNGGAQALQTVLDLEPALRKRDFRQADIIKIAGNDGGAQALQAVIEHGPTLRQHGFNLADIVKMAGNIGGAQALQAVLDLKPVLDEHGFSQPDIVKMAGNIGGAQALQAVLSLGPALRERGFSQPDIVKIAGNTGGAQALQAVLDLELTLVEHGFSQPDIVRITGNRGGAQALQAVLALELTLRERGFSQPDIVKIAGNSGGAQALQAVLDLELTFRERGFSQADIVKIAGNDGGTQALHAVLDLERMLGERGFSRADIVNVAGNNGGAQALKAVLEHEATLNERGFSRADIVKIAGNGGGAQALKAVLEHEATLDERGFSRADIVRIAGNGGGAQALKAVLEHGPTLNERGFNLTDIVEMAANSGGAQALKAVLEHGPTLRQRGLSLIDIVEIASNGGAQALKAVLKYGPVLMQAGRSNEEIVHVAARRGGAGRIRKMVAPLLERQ
runDescription: fluorescence anisotropy; FA and ITC: 25 mM HEPES pH 8, 150 mM NaCl, 0.2 mM TCEP, 298 K; SPR: HBS-EP+ (10 mM HEPES pH 7.4, 150 mM NaCl, 3 mM EDTA, 0.05% P20), 298 K
protocolConditions: protein: recombinant; label: 5' 6-FAM
Assign Kd to each entry below.
Numbers only, in nM.

Example cases with answers are listed next.
binder: FA duplex 10 (C4 C12 G13) (dsDNA) DNA 1: TTAAGCGAAGCAACGACGTTATA DNA 2: TATAACGTCGTTGCTTCGCTTAA
unitOfMeasurement: nM
Kd: 49
//
binder: FA duplex 7 (G4 G12 T13) (dsDNA) DNA 1: TTAAGGGAAGCAAGTACGTTATA DNA 2: TATAACGTACTTGCTTCCCTTAA
unitOfMeasurement: nM
Kd: 42
//
binder: FA duplex 13 (A4 A12 C13) (dsDNA) DNA 1: TTAAGAGAAGCAAACACGTTATA DNA 2: TATAACGTGTTTGCTTCTCTTAA
unitOfMeasurement: nM
Kd: 39
//
binder: FA duplex 14 (C4 C12 C13) (dsDNA) DNA 1: TTAAGCGAAGCAACCACGTTATA DNA 2: TATAACGTGGTTGCTTCGCTTAA
unitOfMeasurement: nM
Kd: 47
//
binder: FA duplex 4 (T4 T12 A13) (dsDNA) DNA 1: TTAAGTGAAGCAATAACGTTATA DNA 2: TATAACGTTATTGCTTCACTTAA
unitOfMeasurement: nM
Kd: 61
//
binder: FA duplex 15 (G4 G12 C13) (dsDNA) DNA 1: TTAAGGGAAGCAAGCACGTTATA DNA 2: TATAACGTGCTTGCTTCCCTTAA
unitOfMeasurement: nM
Kd: 59

Exercise: Request the reported Kd associated with FA duplex 5 (A4 A12 T13) (dsDNA) DNA 1: TTAAGAGAAGCAAATACGTTATA DNA 2: TATAACGTATTTGCTTCTCTTAA
Solution: 32
